B1: KRT15 (parent)
chain: FGGGSTRGGSLLAGGGGFGGGSLS

variants of: B1; test: protein stability index of a GFP-peptide fusion (GPS, HEK-293T) (PSI 1-6); higher = more stable; conditions: c terminus: a fixed tail appended;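 further: lentivirally expressed fusions sorted by FACS into six bins by GFP to DsRed ratio, PSI derived from sequencing read proportions per bin multiplied by bin number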
# protein stability index annotations

RESIDUE CODES | protein stability index
IGGGSTRGGSLLAGGGGFGGGSLS [F1I] | 2.53
FRGGSTRGGSLLAGGGGFGGGSLS [G2R] | 2.79
FGGQSTRGGSLLAGGGGFGGGSLS [G4Q] | 2.17
FGGGSTRGSSLLAGGGGFGGGSLS [G9S] | 1.05
FGGGSTRGGSLLAGGVGFGGGSLS [G16V] | 1.28
FGGGSTRGGSLLAGGMGFGGGSLS [G16M] | 2.16
FGGGSTRGGSLLAGGGGFGGGSIS [L23I] | 1.61
FWGGSTRGGSLLAGGGGFGGGSLS [G2W] | 2.54
FGGGSTRGGSLLAGGGGFGGRSLS [G21R] | 1.24
FGGGFTRGGSLLAGGGGFGGGSLS [S5F] | 2.1
FGGFSTRGGSLLAGGGGFGGGSLS [G4F] | 1.77
FGGRSTRGGSLLAGGGGFGGGSLS [G4R] | 1.58
FGHGSTRGGSLLAGGGGFGGGSLS [G3H] | 1.51
FGGGSTRGGSLLAGGGHFGGGSLS [G17H] | 1.63
FGGWSTRGGSLLAGGGGFGGGSLS [G4W] | 2.61
FGRGSTRGGSLLAGGGGFGGGSLS [G3R] | 2.26
FGGCSTRGGSLLAGGGGFGGGSLS [G4C] | 1.37
FGNGSTRGGSLLAGGGGFGGGSLS [G3N] | 1.93
FGGGSTRGGSLLAGAGGFGGGSLS [G15A] | 1.9
FGGGSTRGGSLLAGGGGFDGGSLS [G19D] | 1.47
FGGGSTRGNSLLAGGGGFGGGSLS [G9N] | 2.35
FKGGSTRGGSLLAGGGGFGGGSLS [G2K] | 3.23
FGWGSTRGGSLLAGGGGFGGGSLS [G3W] | 1.29
FGGGSTRGGSLLAGGGGFFGGSLS [G19F] | 2.8
FGGISTRGGSLLAGGGGFGGGSLS [G4I] | 2.59
FGGGSTRGGSLNAGGGGFGGGSLS [L12N] | 3.01
FGGGSTPGGSLLAGGGGFGGGSLS [R7P] | 3.05
FGGGSTRGGSNLAGGGGFGGGSLS [L11N] | 2.78
FGGGSTRGGSFLAGGGGFGGGSLS [L11F] | 1
FGGGSTRGGSLLVGGGGFGGGSLS [A13V] | 1.94
FGGGSFRGGSLLAGGGGFGGGSLS [T6F] | 2.52
FGGGSTRGGSLLLGGGGFGGGSLS [A13L] | 2.1
FGGGSTRGGSLLAGGGGFGCGSLS [G20C] | 1.41
FGGGSTRGGSLLAGGGGFNGGSLS [G19N] | 2
FGGGSTRGGSLLAGGGGPGGGSLS [F18P] | 2.21
FGGGSTRGGSLLASGGGFGGGSLS [G14S] | 2.43
FGIGSTRGGSLLAGGGGFGGGSLS [G3I] | 3.22
FGGGSTRGVSLLAGGGGFGGGSLS [G9V] | 1.84
FGGGSTRGGSLLAGGGGFGGGSGS [L23G] | 2.26
FGGGSTRGGSLLAGHGGFGGGSLS [G15H] | 3.02
FGGGSTRDGSLLAGGGGFGGGSLS [G8D] | 1.57
FGGGSTRGGSLLAGGGGIGGGSLS [F18I] | 1.76
FGGGSTRGGSLLAGGGGFGTGSLS [G20T] | 1.74
FGGGSTRGGSLLAGVGGFGGGSLS [G15V] | 1.34
FGGGSTRGGSLLAGGGGFGQGSLS [G20Q] | 1.09
FGGSSTRGGSLLAGGGGFGGGSLS [G4S] | 1.68
